Origin of measurements: paper PMC4844649

Assay: phase 1 plasma pharmacokinetics, Cycle 1 Days 1 and 15
Type: in vivo, human
Conditions: human, plasma, po, 400 mg, 400 mg BID oral, n = 3, Day 1; read-out: t 1/2, median (range) (converted)
Property: half-life (h)
State just the number; it will be interpreted in h.

Entry CNC(=O)c1ccc(Nc2ncc(C(F)(F)F)c(NCc3nccnc3N(C)S(C)(=O)=O)n2)cc1 [VS-6063, defactinib] : reported half-life = ?
2.45

* * *

Experiment: phase 1 plasma pharmacokinetics, Cycle 1 Days 1 and 15
Type: in vivo, human
Details: human, plasma, po, 200 mg, 200 mg BID oral, n = 3, Day 15
Property: Cmax (µg/mL)
State just the number; it will be interpreted in µg/mL.

Entry CNC(=O)c1ccc(Nc2ncc(C(F)(F)F)c(NCc3nccnc3N(C)S(C)(=O)=O)n2)cc1 [VS-6063, defactinib] : reported Cmax = ?
0.93
